MEASUREMENT DESCRIPTION: endothelial E-selectin expression blockers – imaging, HUVEC, immunofluorescence, MLSMR starter and 10KST1 sets, primary screen (AID 487);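 on inhibition: signal is fraction of cell area covered by stained E-selectin grains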
CONDITIONS: HUVEC TNFalpha-induced E-selectin immunofluorescence imaging, at 2 µM; stronger effect = higher value
Mark false (0) for inhibition values under -40%, and true (1) for everything at or above.

| COMPOUND | LABEL CLASS |
| --- | --- |
| CCOC(=O)c1cc2sccc2n1Cc1ccccc1 | false (0) |
| O=S1(=O)CCC(NS(=O)(=O)/C=C/c2ccccc2)C1 (stereo unspecified) | true (1) |
| O=S(=O)(c1ccc2nc(Cc3cccc(C(F)(F)F)c3)[nH]c2c1)N1CCOCC1 | false (0) |
| O=C(c1cnn2c(C(F)(F)F)cc(-c3ccco3)nc12)N1CCc2ccccc2C1 | true (1) |
| Cc1noc(/C=C/N(C)C)c1S(=O)(=O)N1CCCC(C(=O)N2CCc3ccccc32)C1 (stereo unspecified) | true (1) |
| CCOC(=O)N1CCC(NC(=O)C2CCN(S(=O)(=O)c3cccc4cccnc34)CC2)CC1 | true (1) |
| COC(=O)CCC(=O)Nc1cccc(Cl)c1 | true (1) |
| Cc1[nH]c2ccccc2c(=O)c1CN1CCCCC1 | false (0) |
| CCOC(=O)Cc1csc(/C(=N/O)C(N)=O)n1 | false (0) |
| Cc1ccc(NC(=O)c2ccccc2O)cc1 | false (0) |

====

Form field: nuclei count (one value per entry).
MEASUREMENT DESCRIPTION: endothelial E-selectin expression blockers – imaging, HUVEC, immunofluorescence, MLSMR starter and 10KST1 sets, primary screen (AID 487);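 on nuclei count: 100% = median nuclei count of all wells on the same plate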
CONDITIONS: HUVEC TNFalpha-induced E-selectin immunofluorescence imaging, at 2 µM; measured here: cell number, toxicity
MEASURED METRIC: nuclei count (%)

| COMPOUND | READING |
| --- | --- |
| COc1ccc(S(=O)(=O)N2CCOCC2)cc1C(=O)Nc1cc(C)on1 | 76.9 |
| CCN1CCCC1CN=Cc1c(O)n(-c2ccccc2)c(=O)c2ccccc12 (stereo unspecified) | 97.6 |
| C/C(=C\c1ccco1)C1C(C#N)=C(N)OC2=C1C(=O)CC(C)(C)C2 (stereo unspecified) | 106 |
| Cc1nc2ncnn2c(N2CCC(C(=O)NC3CCCC3)CC2)c1Cc1ccccc1 | 117 |
| CCOC(=O)CN1C(=O)C(=O)c2cccc(C)c21 | 119 |
| Cc1ccc(CNC(=O)C2CCCN(S(=O)(=O)c3cnc[nH]3)C2)cc1 (stereo unspecified) | 92.7 |

====

MEASUREMENT DESCRIPTION: TLR3 IRF3 reporter activation blockers – cell-based, poly I:C stimulus, luciferase, 10K MLSCN set, primary screen (AID 602277)
CONDITIONS: HEK293-TLR3 RL24 IRF3 luciferase reporter, at 10 µM, stronger effect = higher value
Mark NO for inhibition values under 10%, and YES for everything at or above.

| COMPOUND | LABEL CLASS |
| --- | --- |
| CCCCc1n[nH]c2c1C(=O)CC(C)(C)C2 | YES |
| COc1ccc2nc(NC(=O)c3ccoc3C)sc2c1 | NO |
| Cn1c(=O)[nH]c(=O)c2c1nc(Br)n2Cc1ccccc1F | YES |
| Cn1c(=N)n(CC(=O)O)c2ccccc21 | YES |
| COC(=O)c1ccc(NC(=O)Cn2nnc3ccccc32)cc1 | NO |
| CCOc1ccc(-c2cc(C(=O)N3CCN(c4ccccn4)CC3)c3ccccc3n2)cc1 | NO |
| CCCCN(CC)CCCNC(=O)CS(=O)(=O)Cc1nc(-c2cccc(OC)c2)oc1C | YES |
| CS(=O)(=O)N(Cc1nc2sc3c(c2c(=O)[nH]1)CCCC3)C1CCCCC1 | YES |
| CC(Sc1nnnn1C)C(=O)Nc1ccc(Oc2ccccc2)cc1 (stereo not drawn) | NO |
| Oc1cccc(C=NCc2ccccc2)c1O | YES |
| Cc1ccccc1N1OC2C(=O)N(c3ccc(F)cc3)C(=O)C2C1c1ccccn1 (stereo not drawn) | YES |
| CCc1[nH]nc2c1C(c1ccncc1)C(C#N)=C(N)O2 (stereo not drawn) | NO |
| CCN(CC)Cc1c(C(=O)OC)nnn1-c1nonc1N | YES |
| COc1ccc(CCN2CC(O)=C(c3nc4ccccc4c(=O)[nH]3)C2=N)cc1OC | NO |
| Cc1nc2ccc(S(=O)(=O)NC(C(=O)N3CCCC3)C(C)C)cc2s1 (stereo not drawn) | YES |
| CC(C)(C)NC(=O)C(c1ccco1)N(C(=O)Cn1nnc(-c2ccc(F)cc2)n1)c1ccccc1F (stereo not drawn) | YES |
| COCCn1c(SCC(=O)Nc2cccc(OC)c2)nnc1-c1ccc(Cl)cc1 | YES |
| CCCCCCOC(=O)C(C#N)c1nc2ccccc2nc1N1CCCCC1 (stereo not drawn) | YES |
| CC(Oc1ccc(Cl)cc1Cl)C(=O)Nc1ncccn1 (stereo not drawn) | NO |
| COc1cccc(C(=O)N2CCCC(c3nc(-c4cccs4)no3)C2)c1 (stereo not drawn) | NO |
| COC(=O)[C@H](C)NC(=O)Nc1cccc(C(F)(F)F)c1 | NO |
| Cc1ccc(NC(=O)C2CC=CCC2C(=O)N2CCCCC2)cc1 (stereo not drawn) | YES |
| O=S(=O)(NCc1cn2ccccc2n1)c1cc(F)ccc1F | NO |

====

MEASUREMENT DESCRIPTION: endothelial E-selectin expression blockers – imaging, HUVEC, immunofluorescence, MLSMR starter and 10KST1 sets, primary screen (AID 487);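 on inhibition: signal is fraction of cell area covered by stained E-selectin grains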
CONDITIONS: HUVEC TNFalpha-induced E-selectin immunofluorescence imaging, at 2 µM; stronger effect = higher value
Form field: inhibition (one value per entry).
MEASURED METRIC: inhibition (%)

| COMPOUND | UNITS LABEL | READING |
| --- | --- | --- |
| COc1ccc(OC)c(CNC(=O)COc2cc(=O)n(C)c3ccccc23)c1 | % | 18 |
| CN(C)c1nc(N)nc(-c2nc3ccccc3s2)n1 | % | -96.9 |
| COc1cccc(N2CCN(Cc3nc(N)nc(Nc4ccccc4)n3)CC2)c1 | % | 44.7 |
| COc1cccc(CNC(=O)CCS(=O)(=O)c2cccc3nsnc23)c1 | % | 8.1 |
| FC(F)(F)c1cc(-c2ccccc2)nc(N2CCCCC2)n1 | % | -8.9 |
| COC(=O)c1ccccc1NC(=O)CSc1nc2c(c(=O)n(C)c(=O)n2C)n1C | % | 9.9 |
| COc1cccc(NC(=O)c2nc3nc(C)cc(C(F)F)n3n2)c1 | % | -34.9 |
| Cc1cc2cc(CCNC(=O)CC(C)C)c(=O)[nH]c2cc1C | % | -40 |
| COc1ccc(N2CCN(Cc3nc(-c4ccc(Cl)cc4Cl)no3)CC2)cc1 | % | -48.8 |
| C=CCOc1nc2c(c(=O)n(C)c(=O)n2C)n1C | % | 0.3 |
| CCS(=O)(=O)N1CCCC(C(=O)NCc2ccccc2Cl)C1 (stereo not drawn) | % | -15.6 |
| NC(=O)c1cccc(S(=O)(=O)N2CCCCC2)c1 | % | 47.1 |
| O=C1C(C=NCCCn2ccnc2)=C(O)c2ccccc21 | % | -50.8 |
| Cc1cccc(N2CCN(C(=O)Cn3nc(Cc4ccncc4)c4ccccc4c3=O)CC2)c1C | % | -72 |
| Cc1cc(C)n(CCc2nc(-c3cccs3)cs2)n1 | % | -52.1 |
| Cc1cccc(Cn2c(SCC(=O)Nc3ccccc3)nc3c2c(=O)[nH]c(=O)n3C)c1 | % | 4.7 |
| COc1ccc(-c2noc(CSc3nc(N)c(-c4ccccc4)c(=O)[nH]3)n2)cc1OC | % | -12.1 |
| O=C(Nc1ccc(NC(=O)c2ccco2)nc1)c1cccnc1 | % | 1 |
| COc1ccc(NC(=O)CSc2nnc(-c3ccccc3)n2N)cc1 | % | -13.6 |
| COC(=O)CNC(=O)COC(=O)c1cc(Cl)cc(Cl)c1N | % | -81.4 |
| Cc1cc(C)nc(N(C#N)CC(=O)N2CCC(C(N)=O)CC2)n1 | % | 21.6 |
| c1ccc(OCc2nc(-c3ccccc3)no2)cc1 | % | -72.6 |
| COc1ccc(OCC(O)Cn2c(Br)nc3c2c(=O)[nH]c(=O)n3C)cc1 (stereo not drawn) | % | -39.9 |

====

Form field: fluorescence slope (one value per entry).
ASSAYED SYSTEM: Voltage-gated potassium channel subunit beta-2 (Rattus norvegicus)
MEASUREMENT DESCRIPTION: inhibitors of rat Kvbeta2 reductase activity – biochemical, NADPH fluorescence, primary screen (AID 622);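 further: slope of raw intensity against log time taken from 70 to 1610 s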
CONDITIONS: recombinant KvBeta, 4-cyanobenzaldehyde reduction, at 10 µM, stronger effect = higher value

| COMPOUND | ASSAYED SYSTEM | fluorescence slope |
| --- | --- | --- |
| Cc1ccc(C(=O)Nc2ccc3c(c2)OCO3)cc1S(=O)(=O)N1CCCC1 | Voltage-gated potassium channel subunit beta-2 (Rattus norvegicus) | -0.398 |
| O=C(Nn1cnnc1)C1Cc2ccccc2CN1S(=O)(=O)c1ccc(F)cc1 (stereo not drawn) | Voltage-gated potassium channel subunit beta-2 (Rattus norvegicus) | -0.481 |
| COCCN(C(=O)c1csnn1)C(C(=O)NC1CCCCC1)c1cccs1 (stereo not drawn) | Voltage-gated potassium channel subunit beta-2 (Rattus norvegicus) | -0.335 |
| COc1cccc(C2C(C(N)=O)=C(C)Nc3nc(-c4ccccc4Cl)nn32)c1 (stereo not drawn) | Voltage-gated potassium channel subunit beta-2 (Rattus norvegicus) | -0.416 |
| Cc1ccc(Cn2c(=N)c(C(=O)NCc3ccco3)cc3c(=O)n4ccccc4nc32)cc1 | Voltage-gated potassium channel subunit beta-2 (Rattus norvegicus) | -0.279 |
| CCCN1C2CCCC1CC(NC(=O)Nc1cccc(C(C)=O)c1)C2 (stereo not drawn) | Voltage-gated potassium channel subunit beta-2 (Rattus norvegicus) | -0.637 |
| CC(=O)c1ccccc1OCCn1nnc(-c2ccc(C)cc2)n1 | Voltage-gated potassium channel subunit beta-2 (Rattus norvegicus) | -0.487 |
| O=C(Nc1ccccc1)c1cnc2n(c1=O)CCS2 | Voltage-gated potassium channel subunit beta-2 (Rattus norvegicus) | -0.517 |
| Cc1cc(C(=O)CN2C(=O)c3ccccc3C2=O)c(C)n1Cc1cccs1 | Voltage-gated potassium channel subunit beta-2 (Rattus norvegicus) | -0.517 |
| CC1CCCCC1NC(=O)C1CCN(C(=O)NC2CCCCC2)CC1 (stereo not drawn) | Voltage-gated potassium channel subunit beta-2 (Rattus norvegicus) | -0.448 |
| Cc1ccc(NC(=O)CN2CC(C)SC2=NC2CCCCC2)cc1 (stereo not drawn) | Voltage-gated potassium channel subunit beta-2 (Rattus norvegicus) | -0.514 |
| N#CC1=C(N)S[C@H](C(=O)C23CC4CC(CC(C4)C2)C3)[C@H]1c1ccncc1 | Voltage-gated potassium channel subunit beta-2 (Rattus norvegicus) | -0.482 |
| CCSc1nnc(NC(=O)CSc2nnc(Cc3cccn3C)n2-c2ccc(C)cc2)s1 | Voltage-gated potassium channel subunit beta-2 (Rattus norvegicus) | -0.596 |
| COC(=O)CN1C(=O)C(O)(CC(=O)c2ccc(Cl)cc2)c2ccccc21 (stereo not drawn) | Voltage-gated potassium channel subunit beta-2 (Rattus norvegicus) | -0.372 |
| COCCNC(=O)CC(NS(=O)(=O)c1ccc(NC(C)=O)cc1)C(C)C (stereo not drawn) | Voltage-gated potassium channel subunit beta-2 (Rattus norvegicus) | -0.397 |
| COc1ccc(Cl)c(NCCC(=O)O)c1 | Voltage-gated potassium channel subunit beta-2 (Rattus norvegicus) | -0.453 |
| C=CCSC1=C(C#N)C(c2ccccc2Cl)CC(=O)N1 (stereo not drawn) | Voltage-gated potassium channel subunit beta-2 (Rattus norvegicus) | -0.561 |
| CCOC(=O)CC1=C(C(=O)OCC)C(c2ccc(C)o2)C(C#N)=C(N)O1 (stereo not drawn) | Voltage-gated potassium channel subunit beta-2 (Rattus norvegicus) | -0.625 |
| CCCCN=CC1=C(O)C(C(=O)OC)C(C)(C)CC1=O (stereo not drawn) | Voltage-gated potassium channel subunit beta-2 (Rattus norvegicus) | -0.392 |
| O=C(NCCC1=CCCCC1)c1cc2c(s1)CS(=O)(=O)C2 | Voltage-gated potassium channel subunit beta-2 (Rattus norvegicus) | -0.433 |
| NCc1cccc(-n2cccn2)c1 | Voltage-gated potassium channel subunit beta-2 (Rattus norvegicus) | -0.622 |
| CC1CCCCN1C(=O)Cn1nnc(-c2cccnc2)n1 (stereo not drawn) | Voltage-gated potassium channel subunit beta-2 (Rattus norvegicus) | -0.485 |
| CCc1c(C)c2c(C)nn(-c3ccccc3)c2[nH]c1=O | Voltage-gated potassium channel subunit beta-2 (Rattus norvegicus) | -0.409 |
